IC50 listing for selected compounds.
experimental-target: Human RAR-related Orphan Receptor Gamma (RORγ) (Homo sapiens, UniProt P51449)
Sequence (P51449 269-508 limits assumed): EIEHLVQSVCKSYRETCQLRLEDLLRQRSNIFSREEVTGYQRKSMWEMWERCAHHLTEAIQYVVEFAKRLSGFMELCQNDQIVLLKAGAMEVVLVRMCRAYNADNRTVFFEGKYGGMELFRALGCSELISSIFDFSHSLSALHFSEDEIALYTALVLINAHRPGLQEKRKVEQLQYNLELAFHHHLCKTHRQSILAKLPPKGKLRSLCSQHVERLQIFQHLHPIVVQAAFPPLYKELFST
assay-text: RORγ assay (GAL4-RORγ hybrid luciferase reporter, Indigo Biosciences)
condition-summary: inverse-agonist activity, GAL4-RORγ reporter cells, 23 hours
Only the number, expressed in nM, is required.

Recorded results for 3 compounds are shown here.
- smiles-data: "COc1ccc(-c2ccc(-n3nc(-c4ccccc4)c4c3[C@]3(C)C=C(C#N)C(=O)[C@H](C)[C@H]3CC4)cc2)cc1"
  IC50 (nM): 65
- smiles-data: "C[C@H]1C(=O)C(C#N)=C[C@@]2(C)c3c(c(-c4ccncc4)nn3-c3ccc(-c4cncc(F)c4)cc3)CC[C@H]12"
  IC50 (nM): 54
- smiles-data: "C[C@H]1C(=O)C(C#N)=C[C@@]2(C)c3nn(Cc4ccccc4)c(-c4ccccc4)c3CC[C@H]12"
  IC50 (nM): 140

Please report IC50 for the following compound: C[C@H]1C(=O)C(C#N)=C[C@@]2(C)c3nc(-c4ccnc(C(F)(F)F)c4)n(-c4cccc(F)c4)c3CC[C@H]12
146

Tell me IC50 reported for C[C@H]1C(=O)C(C#N)=C[C@@]2(C)c3c(c(-c4ccncn4)nn3-c3ccc(-c4ccnc(CO)c4)cc3)CC[C@H]12
174

Annotate the compound C[C@H]1C(=O)C(C#N)=C[C@@]2(C)c3c(c(-c4ccccc4)nn3-c3ccc(-c4cccc(CO)c4)cc3)CC[C@H]12 with its measured IC50.
44

Please give the documented IC50 of C[C@H]1C(=O)C(C#N)=C[C@@]2(C)c3nc(-c4ccc(-c5ccccc5)cc4)n(-c4cccnc4)c3CC[C@H]12
188

Return the recorded IC50 value; entry: C[C@H]1C(=O)C(C#N)=C[C@@]2(C)c3c(c(-c4ccncn4)nn3-c3ccc(-c4cccnc4)cc3)CC[C@H]12
48

Answer with the recorded IC50 for the compound listed here: C[C@H]1C(=O)C(C#N)=C[C@@]2(C)c3nn(C4CCOCC4)c(-c4ccccc4)c3CC[C@H]12
90

Report IC50, nothing else, for this compound: C[C@H]1C(=O)C(C#N)=C[C@@]2(C)c3nc(-c4ccnc(N5CCOCC5)c4)n(-c4cnn(C)c4)c3CC[C@H]12
562

Tell us which IC50 value is on record for C[C@H]1C(=O)C(C#N)=C[C@@]2(C)c3nn(-c4ccncc4)c(-c4ccc(F)cc4)c3CC[C@H]12
97

Give IC50 for C[C@H]1C(=O)C(C#N)=C[C@@]2(C)c3c(c(-c4ccccc4)nn3-c3ccc(-c4ccccc4)cn3)CC[C@H]12
107

Consider the compound COc1ccc(-n2nc3c(c2-c2ccccc2)CC[C@@H]2[C@@H](C)C(=O)C(C#N)=C[C@@]32C)cc1 . State its measured IC50.
80

Read the entry C[C@H]1C(=O)C(C#N)=C[C@@]2(C)c3c(c(-c4ccc(F)cc4)nn3-c3ccc(-c4ccnc(CF)c4)cc3)CC[C@H]12 and write its reported IC50.
60
